Biological target: Adenosine receptor A3 (Homo sapiens, UniProt P0DMS8)
Sequence (P0DMS8 whole entry): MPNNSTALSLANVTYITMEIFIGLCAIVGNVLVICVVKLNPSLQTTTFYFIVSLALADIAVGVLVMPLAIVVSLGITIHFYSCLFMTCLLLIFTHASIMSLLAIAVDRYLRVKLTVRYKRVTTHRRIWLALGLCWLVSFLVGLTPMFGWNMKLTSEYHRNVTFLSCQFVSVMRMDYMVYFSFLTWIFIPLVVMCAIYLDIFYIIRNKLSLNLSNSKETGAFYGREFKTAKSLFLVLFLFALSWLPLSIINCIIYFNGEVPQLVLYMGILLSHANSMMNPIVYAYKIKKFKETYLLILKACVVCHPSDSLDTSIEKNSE
Experiment: Displacement of [125I]-AB-MECA from human adenosine A3 receptors transfected in CHO cells
endpoint name: Ki (nM)

Please review the entries below; each comes with its answer.
given_smiles=N#Cc1cccc(-c2nc(Nc3ccncc3)sc2-n2cncn2)c1 endpoint_name=Ki measured_value=304
given_smiles=N#Cc1cccc(-c2nc(Nc3cccnc3)sc2-n2ccnc2)c1 endpoint_name=Ki measured_value=124
given_smiles=Cc1cccc(Nc2nc(-c3cccc(C#N)c3)c(-n3ccnc3)s2)n1 endpoint_name=Ki measured_value=44
given_smiles=Cc1cccc(Nc2nc(-c3cccc(C#N)c3)c(-n3cncn3)s2)n1 endpoint_name=Ki measured_value=37
given_smiles=CC(=O)Nc1nc(-c2cccc(C#N)c2)c(-n2cncn2)s1 endpoint_name=Ki measured_value=134
given_smiles=N#Cc1cccc(-c2nc(Nc3cnccn3)sc2-n2ccnc2)c1 endpoint_name=Ki measured_value=11

1. Cc1nccn1-c1sc(Nc2cnccn2)nc1-c1cccc(C#N)c1
2. Cc1cccc(Nc2nc(-c3cccc(C#N)c3)c(-n3ccnc3C)s2)n1
3. N#Cc1cccc(-c2nc(Nc3cccnc3)sc2-n2cncn2)c1
4. N#Cc1cccc(-c2nc(Nc3ccccn3)sc2-n2cncn2)c1
Lookup: Form: Sort by [Ki] Order [ ascending ] Put the labels in the requested order and write them down.
Found: 1, 4, 2, 3
(1: 10 nM, 4: 24 nM, 2: 419 nM, 3: 698 nM)

###

Target: Adenosine receptor A2a (Homo sapiens, UniProt P29274)
Sequence (P29274 whole entry): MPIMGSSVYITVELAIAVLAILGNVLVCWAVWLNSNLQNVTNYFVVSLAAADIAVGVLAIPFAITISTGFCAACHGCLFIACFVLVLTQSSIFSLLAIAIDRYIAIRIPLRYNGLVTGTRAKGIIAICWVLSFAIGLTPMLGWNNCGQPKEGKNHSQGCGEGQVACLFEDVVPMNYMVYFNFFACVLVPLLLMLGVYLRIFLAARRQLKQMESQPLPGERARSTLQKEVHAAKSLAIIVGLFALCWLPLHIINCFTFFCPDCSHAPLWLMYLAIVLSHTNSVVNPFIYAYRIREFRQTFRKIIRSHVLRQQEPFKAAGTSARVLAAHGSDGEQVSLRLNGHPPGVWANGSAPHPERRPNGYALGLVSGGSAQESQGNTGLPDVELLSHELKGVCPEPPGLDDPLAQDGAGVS
Test: Displacement of [3H]ZM-241,385 from human adenosine A2a receptors transfected in HEK 293 cells
pKi: −log10 of the molar value.
endpoint name: pKi

given_smiles=N#Cc1cccc(-c2nc(Nc3cccnc3)sc2-n2ccnc2)c1 endpoint_name=pKi measured_value=5.57

P. Cc1cccc(Nc2nc(-c3cccc(C#N)c3)c(-n3ccnc3C)s2)n1
Q. N#Cc1cccc(-c2nc(Nc3ccccn3)sc2-n2cncn2)c1
R. N#Cc1cccc(-c2nc(Nc3cnccn3)sc2-n2cncn2)c1
S. CC(=O)Nc1nc(-c2cccc(C#N)c2)c(-n2cncn2)s1
T. N#Cc1cccc(-c2nc(Nc3cnccn3)sc2-n2ccnc2)c1
Lookup: Form: Sort by [pKi] Order [ ascending ] Put the labels in the requested order and write them down.
Found: S, R, Q, T, P
(S: 5.25, R: 5.45, Q: 5.69, T: 6.46, P: 6.76)

P. Cc1nccn1-c1sc(Nc2cnccn2)nc1-c1cccc(C#N)c1
Q. N#Cc1cccc(-c2nc(Nc3ccncc3)sc2-n2cncn2)c1
Lookup: Given P and Q , report the one with the higher recorded pKi. Indicate your choice by writing its label.
Found: P

Where do the numbers come from? From ChEMBL document CHEMBL1139627.
